The entries below are paired with their reported T/C.
tested on: B6C3F1 mice, B16 melanoma ip, median survival T/C; assay: NCI In Vivo Anticancer Drug Screen. Data for tumor model B16 Melanoma (intraperitoneal) in B6C3F1 mice; conditions: endpoint: median survival time; dose: 16.0 mg/kg/injection; schedule: Q01DX009 (ip); vehicle: saline with Tween-80; higher = longer survival
Inconclusive results and toxic doses are left out.
REPORTED PROPERTY: T/C

| MOLECULE | REPORTED VALUE |
| --- | --- |
| Cc1c2ccccc2c(C)c2c1ccc1ccccc12 | 86 % of control |
| Cc1[nH]ccc(=O)c1O | 103 % of control |
| C1OC1CN1CCN(CC2CO2)CC1 (centres undefined) | 110 % of control |
| O=c1[nH]cccc1O | 101 % of control |

====

system: B6C3F1 mice, B16 melanoma ip, median survival T/C; test: NCI In Vivo Anticancer Drug Screen. Data for tumor model B16 Melanoma (intraperitoneal) in B6C3F1 mice; conditions: endpoint: median survival time; dose: 200.0 mg/kg/injection; schedule: Q01DX009 (ip); vehicle: water; higher = longer survival
Inconclusive results and toxic doses are left out.

| COMPOUND | T/C |
| --- | --- |
| CN(C)[C@@H]1C(=O)C(C(N)=O)=C(O)[C@@]2(O)C(=O)C3=C(O)c4c(O)ccc(Cl)c4[C@@](C)(O)[C@H]3C[C@@H]12 | 106 % of control |
| CC(=O)NC(C=O)OCC=O (stereo unspecified) | 112 % of control |
| O=C(O)C1CC(c2ccccc2)=NN1c1ccccc1 (stereo unspecified) | 110 % of control |
| Nc1cc(Cl)c2[nH]cnc2n1 | 100 % of control |
| Cc1noc(N)c1N | 96 % of control |
| [Na+] | 106 % of control |

====

tested on: B6C3F1 mice, B16 melanoma ip, median survival T/C; experiment: NCI In Vivo Anticancer Drug Screen. Data for tumor model B16 Melanoma (intraperitoneal) in B6C3F1 mice; details: endpoint: median survival time; dose: 12.0 mg/kg/injection; schedule: Q01DX009 (ip); vehicle: water
Inconclusive results and toxic doses are left out. How the source made its calls: active means survival T/C of 150% or more; inactive means T/C below 125% in these data.
Outcomes: active, inactive

| MOLECULE | GROUP |
| --- | --- |
| Cc1noc(N)c1N | inactive |
| CCCCCCCC(=O)N/N=C(\CO)[C@]1(O)Cc2c(O)c3c(c(O)c2[C@@H](OC2CC(N)C(O)C(C)O2)C1)C(=O)c1c(OC)cccc1C3=O (some centres undefined) | active |
| COc1cccc2c1C(=O)c1c(O)c3c(c(O)c1C2=O)CC(O)(/C(C)=N/NC(=O)CCC(=O)N/N=C(\C)C1(O)Cc2c(O)c4c(c(O)c2C(OC2CC(N)C(O)C(C)O2)C1)C(=O)c1c(OC)cccc1C4=O)CC3OC1CC(N)C(O)C(C)O1 (centres undefined) | active |
| COc1ccc2[nH]c3ccc4cc[n+](CCN5CCC(C6CCN(CC[n+]7ccc8ccc9[nH]c%10ccc(OC)cc%10c9c8c7)CC6)CC5)cc4c3c2c1 | active |

====

tested on: B6C3F1 mice, B16 melanoma ip, median survival T/C; assay: NCI In Vivo Anticancer Drug Screen. Data for tumor model B16 Melanoma (intraperitoneal) in B6C3F1 mice; details: endpoint: median survival time; dose: 200.0 mg/kg/injection; schedule: Q01DX009 (ip); vehicle: Klucel (hydroxypropylcellulose) (HPC); higher = longer survival
Toxic doses and inconclusive results are not listed. Where a SMILES comes first, the peptide text is derived from it. [ ]: non-standard residue; d: D form. The star is where a group is joined. Cbz = O=C(OCc1ccccc1)*; Nva = CCC[CH](N)C(=O)O

| COMPOUND | T/C |
| --- | --- |
| CCCC(NC(=O)CNC(=O)OCc1ccccc1)C(=O)O (stereo unspecified) (HELM PEPTIDE1{[O=C(OCc1ccccc1)[*:2]].G.[CCCC(N[*:1])C(=O)O]}$$$$V2.0) | 92 % of control |
| O=C1CNC(=O)N1CN1CCOCC1 | 115 % of control |
| CCCC(NC(=O)OCc1ccccc1)C(=O)NC(CCSC)C(N)=O (stereo unspecified) (Cbz-[Nva]-Met-NH2; configuration not given here) | 103 % of control |
| O=Cc1ccccc1 | 86 % of control |
| NC(=O)CCC(NC(=O)OCc1ccccc1)C(=O)NCC(=O)O (stereo unspecified) | 98 % of control |
| CSc1nc(=O)[nH]nc1SCc1ccccc1 | 96 % of control |

====

system: B6C3F1 mice, B16 melanoma ip, median survival T/C; assay: NCI In Vivo Anticancer Drug Screen. Data for tumor model B16 Melanoma (intraperitoneal) in B6C3F1 mice; conditions: endpoint: median survival time; dose: 800.0 mg/kg/injection; schedule: Q01DX009 (ip); vehicle: saline; higher = longer survival
Toxic doses and inconclusive results are not listed.

| COMPOUND | T/C |
| --- | --- |
| NC(CO)(CO)CO | 98 % of control |
| COC(=O)C(N)Cc1ccc(O)c(O)c1 (centres undefined) | 117 % of control |
| CCCCCC[C@@H](O)C/C=C\CCCCCCCC(=O)OCCO | 96 % of control |
| OCCCN1CCCCC1CO (centres undefined) | 112 % of control |

====

The entries below are paired with their reported T/C.
system: B6C3F1 mice, B16 melanoma ip, median survival T/C; assay: NCI In Vivo Anticancer Drug Screen. Data for tumor model B16 Melanoma (intraperitoneal) in B6C3F1 mice; conditions: endpoint: median survival time; dose: 1.25 mg/kg/injection; schedule: Q01DX009 (ip); vehicle: saline; higher = longer survival
Inconclusive results and toxic doses are left out.

| COMPOUND | T/C |
| --- | --- |
| N#CC(Br)(Br)C(N)=O | 87 % of control |
| CN(C)c1ccc(C(=C2C=CC(=[N+](C)C)C=C2)c2ccc(N(C)C)cc2)cc1 (tested in a mixture with another compound) | 105 % of control |
| ClCCCN1CCN(CCCl)CC1 | 98 % of control |
| Cc1c2cc[n+](C)cc2c(C)c2c1[nH]c1ccc(O)cc12 | 123 % of control |
| CC1OC2CC(O)C1(O)C1=C2C(O)=C(C(N)=O)C(=N)C1=O (stereo unspecified) | 104 % of control |
| C/C(=N\NC(=O)c1ccncc1)c1ccc(Cl)cc1 | 96 % of control |

====

tested on: B6C3F1 mice, B16 melanoma ip, median survival T/C; test: NCI In Vivo Anticancer Drug Screen. Data for tumor model B16 Melanoma (intraperitoneal) in B6C3F1 mice; conditions: endpoint: median survival time; dose: 12.5 mg/kg/injection; schedule: Q01DX009 (ip); vehicle: saline with Tween-80; higher = longer survival
Toxic doses and inconclusive results are not listed.
The entries below are paired with their reported T/C.

| COMPOUND | T/C |
| --- | --- |
| COc1cccc(C2NC(=O)c3c(n[nH]c3N)S2)c1O (stereo not drawn) | 101 % of control |
| O=C1NCC(Br)C(=O)N1 (stereo not drawn) | 102 % of control |
| CS(=O)(=O)CS(=O)(=O)OCCCl | 116 % of control |
| N#CC(=C1C=CC(=NO)C=C1)c1ccc(Cl)cc1 | 105 % of control |
| Nc1nc(SCc2ccccc2Cl)c2ncn(C3OC(CO)C(O)C3O)c2n1 (stereo not drawn) | 106 % of control |
| COc1c2occc2c(N=NN(C)C)c2ccc(=O)oc12 | 99 % of control |
| CC(=O)Nc1ccc(/C=N/Nc2ccc([N+](=O)[O-])cn2)cc1 | 89 % of control |
| COC(=O)c1ccc(O)cc1 | 92 % of control |
| ClC1=C(Cl)C(Cl)=C(Cl)C1=Cc1ccccc1 | 106 % of control |
| O=C(Nc1ccc(Cl)c(Cl)c1)Nc1c(Oc2ccc(Cl)c(Cl)c2)ccc(Cl)c1S(=O)(=O)O | 101 % of control |
| O=[n+]1c2ccccc2n([O-])c2ccccc21.[Cl][Ni][Cl] | 113 % of control |
| COC(=O)Nc1nc2ccc(C3(c4ccc(F)cc4)OCCO3)cc2[nH]1 | 118 % of control |
| CN(N=O)C(=O)NCCCCCNC(=O)N(C)N=O | 98 % of control |
| Cc1ccc(C(=Nc2ccccc2)N=P(c2ccccc2)(c2ccccc2)c2ccccc2)cc1 | 94 % of control |
| c1ccc(OCC2CO2)c(OCC2CO2)c1 (stereo not drawn) | 108 % of control |
| CC1(C)OC1CS(=O)c1ccccc1 (stereo not drawn) | 96 % of control |
| O=C1CC(c2ccc(Cl)cc2Cl)Oc2ccc(Cl)cc21 (stereo not drawn) | 88 % of control |
| O=C1[C@H]2CCC[C@H]2[C@H]2CCC[C@@H]12 | 99 % of control |
| CCc1cc2c(cc1C(C)=O)C(C)(C)CCC2(C)C | 95 % of control |
| CC(=O)Oc1c[nH]c(=O)[nH]c1=O | 97 % of control |
| COc1ccc(O)cc1 | 112 % of control |
| Cc1c(NS(=O)(=O)c2ccccc2)c(C)c(NS(=O)(=O)c2ccccc2)c(C)c1NS(=O)(=O)c1ccccc1 | 97 % of control |
| ClC1=C(Cl)C2(Cl)C3C(Cl)C(Cl)CC3C1(Cl)C2(Cl)Cl (stereo not drawn) | 97 % of control |
| CC1(C)CC1(Br)Br | 93 % of control |
| Cc1cc(=O)n2c3c(c4c(cc13)c(CN(C)C)cc(=O)n4C)OC2 | 98 % of control |
| CC(/C=C/c1ccccc1)=Nc1ccccc1 | 99 % of control |
| COC1=CCC23C(=O)C=CC(=O)C2(C1)C(=O)c1ccccc1C3=O (stereo not drawn) | 94 % of control |
| CC(Oc1ccccc1-c1ccccc1)C(=O)N(C)C (stereo not drawn) | 95 % of control |
| Cn1c2nc(=O)n(-c3ccccc3)c(=O)c-2nc2c1CCCC2 | 107 % of control |
| O=[n+]1c2ccccc2n([O-])c2cc(Cl)ccc21 | 111 % of control |
| Nc1nc(N)c2cc(CNc3ccc(C(=O)NC(CC(=O)O)CC(=O)O)cc3)ccc2n1 | 90 % of control |
| CC(C)=CCC/C(C)=C\C=N\NS(=O)(=O)c1ccc([N+](=O)[O-])cc1 | 93 % of control |
| Cc1nn(CCO)c(C)c1N=[N+]([O-])c1c(C)nn(CCO)c1C | 92 % of control |
| O=[N+]([O-])c1ccc(N(CCO)CCO)c2c1no[n+]2[O-] | 114 % of control |
| CCCCCCCCCCCCCCCCNc1cccc2ccccc12 | 96 % of control |
| C/C(=N/NC(N)=S)c1ccc2ccccc2c1 | 108 % of control |
| CCCOC(=O)c1ccc(O)cc1 | 103 % of control |
| O=S(=O)(c1ccccc1)N1CN2CCN(C2)C1 | 96 % of control |
| Cc1c2cc(Cl)c3ccccc3c2c[n+]2ccccc12 | 112 % of control |
| ClC1C(Cl)C(Cl)C(Cl)C(Cl)C1Cl (stereo not drawn) | 107 % of control |
| COC1=C(OC)C(=O)C(Sc2ccc3ccccc3c2)=CC1=O | 95 % of control |
| O=c1s[se]c2ccccc12 | 103 % of control |
| CC1/C=C/C=C/CC/C=C/C=C/C=C/C=C/C(OC2OC(C)C(O)C(N)C2O)CC2OC(CC(O)C(O)CCC(O)CC(O)CC(O)CC(=O)OC(C)C(C)C1O)CC(O)C2C(=O)O (stereo not drawn) | 96 % of control |
| Cc1ccc(NC(=O)Oc2ccc(Br)cc2Br)c([N+](=O)[O-])c1 | 105 % of control |
| Nc1nc2c(ncn2C2OC(CO)C(O)C2N)c(=O)[nH]1 (stereo not drawn) | 107 % of control |
| CN(C)c1nc(N(C)C)nc(N(C)C)n1 | 88 % of control |
| CCCCNC(C)(C)COC(=O)/C=C/c1ccc(OCCCC)cc1 | 98 % of control |
| O=c1oc2c(O)c(O)cc3c(=O)oc4c(O)c(O)cc1c4c23 | 123 % of control |
